TEST_DETAILS: Plasma concentration in C57B1/6 mouse at 5 mg/kg, po after 0.5 hrs
Format: ADME, organism-based
Set-up: dose 5 mg/kg, route oral
TEST_READOUT: concentration at 0.5 h

Requested read-out: concentration at 0.5 h. Entry: O=C(Nc1ncc(F)s1)[C@H](CC1CCOCC1)c1ccc(S(=O)(=O)C2CCC2)cc1
1180 ng/mL

###

Assign EC50 to each entry below.
TEST_TARGET: Hexokinase-4 (Homo sapiens)
Sequence (P35557 whole entry, the tested form may be a part): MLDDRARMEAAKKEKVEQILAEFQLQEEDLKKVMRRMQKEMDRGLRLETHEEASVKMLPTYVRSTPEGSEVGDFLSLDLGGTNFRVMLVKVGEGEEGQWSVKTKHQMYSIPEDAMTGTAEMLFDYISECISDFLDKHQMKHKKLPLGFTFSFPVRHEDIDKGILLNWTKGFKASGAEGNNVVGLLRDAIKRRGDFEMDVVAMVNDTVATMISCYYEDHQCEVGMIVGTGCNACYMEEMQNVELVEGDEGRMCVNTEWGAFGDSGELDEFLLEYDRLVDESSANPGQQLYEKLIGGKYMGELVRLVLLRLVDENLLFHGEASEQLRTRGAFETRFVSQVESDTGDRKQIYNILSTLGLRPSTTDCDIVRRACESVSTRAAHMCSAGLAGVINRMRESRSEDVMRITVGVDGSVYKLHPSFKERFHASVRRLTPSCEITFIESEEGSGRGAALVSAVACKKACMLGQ
TEST_DETAILS: Activation of GST fused human liver glucokinase assessed as generation of NADPH by G6PDH coupled assay

Reported EC50 for CS(=O)(=O)c1ccc([C@H](CC2CCOCC2)C(=O)Nc2nccs2)cc1 : what is it?
> 10 µM

Quick one: EC50 of CS(=O)(=O)c1ccc([C@@H](CC2CCOCC2)C(=O)Nc2ncc(F)s2)cc1 ?
1.43 µM

Param item = O=C(Nc1ncc(F)s1)[C@H](CC1CCOCC1)c1ccc(S(=O)(=O)C2CCCC2)cc1 ; retrieve measured EC50.
0.07 µM

Given the entry O=C(Nc1nccs1)/C(=C/c1cccs1)c1ccccc1 , report its measured EC50.
10.8 µM

Fill in the blank: the reported EC50 of Cc1cnc(NC(=O)[C@H](CC2CCOCC2)c2ccc(S(=O)(=O)C3CC3)cc2)s1 is ____.
0.58 µM

Value lookup for EC50; key = CS(=O)(=O)c1ccc(/C(=C\C2CCOCC2)C(=O)Nc2nccs2)cc1
2.3 µM

Name the reported EC50 value associated with the compound O=C(Nc1cnccn1)/C(=C/c1cccs1)c1ccccc1
26 µM

What EC50 value was documented for this compound, O=C(Nc1ncc(F)s1)[C@H](CC1CCOCC1)c1ccc(S(=O)(=O)C2CCC2)cc1 ?
0.14 µM

Recorded EC50 of O=C(Nc1nccs1)[C@H](CC1CCOCC1)c1ccc(S(=O)(=O)C2CC2)cc1 , please.
0.57 µM

May I ask what EC50 has been recorded for CS(=O)(=O)c1ccc(C(=Cc2cccs2)C(=O)Nc2nccs2)cc1 ?
0.56 µM

Which measured EC50 value corresponds to CS(=O)(=O)c1ccc(C(CC2CCOCC2)C(=O)Nc2nccs2)cc1 (configuration not stated) ?
8.93 µM

Give its EC50 value. Item: CS(=O)(=O)c1ccc([C@@H](CC2CCOCC2)C(=O)Nc2nccs2)cc1
3.47 µM
